Data credit: patent US20140243403A1

Tested on: CCK-81 cells
Assay: Cellular proliferation and viability, CRC cell line panel
Format: cell-based, human
Settings: KRAS WT, BRAF WT, 3 days post-treatment
Method: (A) IC50 values (μM) for effects on cellular proliferation and viability with the TAK1 kinase inhibitor 5z-7-oxozeaenol in a panel of colon cancer cell lines that have been genotyped as KRAS mutant (KRAS-independent—circles or KRAS-dependent—squares), BRAF mutant (triangles) or wild-type for both KRAS and BRAF (OTHER—diamonds). Effects on growth were measured 3 days post-treatment. […]
Quantity kind: IC50 (µM)
The reply should be a number in µM, with the unit left off.

What value of IC50 has been reported for the following compound? COc1cc(O)c2c(c1)/C=C/C[C@H](O)[C@H](O)C(=O)/C=C\C[C@H](C)OC2=O [5Z-7-oxozeaenol]
0.412
